# pIC50 per record follows
test system: HL-60; test: Cytotoxicity against human HL60 cells assessed as inhibition of [3H]thymidine incorporation; type: functional, cell-based
Quick note: pIC50 means taking -log10 of the concentration in moles per liter.

Worked examples follow.
INSERT INTO results (molecule, data_value) VALUES
  ('C[C@@H]1O[C@@H](O[C@H]2[C@H](OC(=O)[C@]34CCC(C)(C)C[C@H]3C3=CC[C@@H]5[C@@]6(C)CC[C@H](O[C@@H]7O[C@H](CO)[C@@H](O)[C@H](O)[C@H]7O)C(C)(C)[C@@H]6CC[C@@]5(C)[C@]3(C)C[C@H]4O)OC[C@H](O)[C@@H]2O)[C@H](O)[C@H](O)[C@H]1O [ASTERLINGULATOSIDE B]', 4.15),
  ('C[C@@H]1O[C@@H](O[C@H]2[C@H](OC(=O)[C@]34CCC(C)(C)C[C@H]3C3=CC[C@@H]5[C@@]6(C)CC[C@H](O[C@@H]7O[C@H](CO)[C@@H](O)[C@H](O)[C@H]7O)C(C)(C)[C@@H]6CC[C@@]5(C)[C@]3(C)C[C@H]4O)OC[C@H](O)[C@@H]2O)[C@H](O)[C@H](O)[C@H]1O[C@@H]1OC[C@@H](O)[C@H](O)[C@H]1O [ASTERLINGULATOSIDE C]', 5.06),
  ('CC1(C)CC[C@]2(C(=O)O[C@@H]3OC[C@H](O)[C@H](O)[C@H]3O)[C@H](O)C[C@]3(C)C(=CC[C@@H]4[C@@]5(C)CC[C@H](O[C@@H]6O[C@H](CO)[C@@H](O)[C@H](O)[C@H]6O)C(C)(C)[C@@H]5CC[C@]43C)[C@@H]2C1 [ASTERLINGULATOSIDE A]', 4.41);

Now let's try a different one.
Can you share its pIC50? I mean this molecule: C[C@@H]1O[C@@H](O[C@H]2[C@H](OC(=O)[C@]34CCC(C)(C)C[C@H]3C3=CC[C@@H]5[C@@]6(C)CC[C@H](O[C@@H]7O[C@H](CO)[C@@H](O)[C@H](O)[C@H]7O)C(C)(C)[C@@H]6CC[C@@]5(C)[C@]3(C)C[C@H]4O)OC[C@H](O)[C@@H]2O)[C@H](O)[C@H](O)[C@H]1O[C@@H]1OC[C@@H](O)[C@H](O[C@@H]2OC[C@@H](O)[C@H](O)[C@H]2O)[C@H]1O [ASTERLINGULATOSIDE]
5.21
